So I've got pKi readings for Cbl (RING) protein (Homo sapiens), take a look.
*1 amine or outer side, *2 acyl side, *3 side chain or, on linkers, in order; H or OH if unused. Where a SMILES comes first, the peptide text is derived from it. [ ]: non-standard residue; d: D form. X2 = CC(=O)CN(CCCC[C@H](N[*:1])C(=O)[*:2])C(C)=O; Phe(3-F) = N[C@@H](Cc1cccc(F)c1)C(=O)O; Phe(2-Me) = Cc1ccccc1C[C@H](N)C(=O)O
Numbers only, as −log10 of the molar value.

Solved cases (2 shown):
# molecule, measurement
records = [
    ("CC(=O)N1CCC[C@H]1C(=O)N[C@@H](Cc1cccc(F)c1)C(=O)N[C@@H](CCCCN)C(=O)N1CCC[C@@H]1C(=O)N1CCC[C@H]1C(N)=O [Peptide 24, Ac-P(h)K(o)P-NH2] (Ac-P[Phe(3-F)]K[dP]P-NH2)", 5.46),
    ("CC(=O)N1CCC[C@H]1C(=O)N[C@@H](Cc1ccccc1C)C(=O)N[C@@H](CCCCN)C(=O)N1CCC[C@H]1C(=O)N1CCC[C@H]1C(N)=O [Peptide 6, Ac-P(d)KPP-NH2] (Ac-P[Phe(2-Me)]KPP-NH2)", 4.99),
]

Field: next molecule
pKi in this record for CC(=O)CN(CCCC[C@H](NC(=O)[C@@H](NC(=O)[C@H](C)NC(=O)[C@@H]1CCCN1C(=O)[C@H](CCCCN)NC(C)=O)[C@@H](C)O)C(N)=O)C(C)=O [Peptide 43, Ac-KPAT(w)-NH2] (Ac-KPAT[X2]-NH2) : 4.14

---

So I've got a bunch of compounds here, and I need their Ambulatory night activity values.
# Test system: mice fed a high-fat diet
# protocol.description: Indirect energy expenditure and physical activity measurement
# Format: in vivo
# stated.conditions: photobeam break counts; after 12 weeks daily i.p. 5 mg/kg on high-fat diet; vehicle 6,289 ± 1,216
# Description: All experiments were approved by the institutional Animal Care and Use Committee (Chengdu Medical College, China). All experiments were carried out in 10-week-old male mice maintained on the C57BL/6 background. All the animals were kept on a 12-h light/dark cycle with free access to food and water. Animals (n = 90) were randomly assigned to one of the nine groups (Table 1). […] Food intake was measured manually on a daily basis. […]
Where a SMILES comes first, the peptide text is derived from it. [ ]: non-standard residue; d: D form. Pro(trans-4-F) = O=C(O)[C@@H]1C[C@@H](F)CN1; Phe(3-F) = N[C@@H](Cc1cccc(F)c1)C(=O)O; Phg = N[C@H](C(=O)O)c1ccccc1

Solved cases (2 shown):
# compound, measurement.type, measurement
data = [
    ("CC(=O)N[C@@H](CCCCN)C(=O)N1C[C@H](F)C[C@H]1C(=O)N[C@@H](C)C(=O)N[C@H](C(=O)N[C@@H](CCCCN)C(N)=O)[C@@H](C)O [Peptide 51, Ac-K(t)ATK-NH2] (Ac-K[Pro(trans-4-F)]ATK-NH2)", "Ambulatory night activity", "19,251 ± 3,058 per 12 h"),
    ("CC(=O)N1CCC[C@H]1C(=O)N[C@@H](Cc1cccc(F)c1)C(=O)N[C@@H](CCCCN)C(=O)N1CCC[C@H]1C(=O)N1CCC[C@H]1C(N)=O [Peptide 10, Ac-P(h)KPP-NH2] (Ac-P[Phe(3-F)]KPP-NH2)", "Ambulatory night activity", "12,896 ± 2,469 per 12 h"),
]

Field: next compound
Ambulatory night activity in this record for CC(=O)N1CCC[C@H]1C(=O)N[C@H](C(=O)N[C@@H](CCCCN)C(=O)N1CCC[C@H]1C(=O)N1CCC[C@H]1C(N)=O)c1ccccc1 [Peptide 3, Ac-P(a)KPP-NH2] (Ac-P[Phg]KPP-NH2) : 6,058 ± 1,298 per 12 h

---

# Tested on: mice fed a high-fat diet
# protocol.description: Indirect energy expenditure and physical activity measurement
# Format: in vivo
# stated.conditions: after 12 weeks daily i.p. 5 mg/kg on high-fat diet; vehicle 4.15 ± 0.55
Where a SMILES comes first, the peptide text is derived from it. [ ]: non-standard residue; d: D form. Phe(3-F) = N[C@@H](Cc1cccc(F)c1)C(=O)O; Phg = N[C@H](C(=O)O)c1ccccc1; Thz = O=C(O)[C@@H]1CSCN1
measurement.type: Oxygen consumption VO2 (mL/g/h)
Give bare numbers, in mL/g/h.

# compound, tested.on, Oxygen consumption VO2 [mL/g/h]
data = [
    ("CC(=O)N1CCC[C@H]1C(=O)N[C@H](C(=O)N[C@@H](CCCCN)C(=O)N1CCC[C@H]1C(=O)N1CCC[C@H]1C(N)=O)c1ccccc1 [Peptide 3, Ac-P(a)KPP-NH2] (Ac-P[Phg]KPP-NH2)", "mice fed a high-fat diet", 3.78),
]

I looked up CC(=O)N1CSC[C@H]1C(=O)N[C@@H](Cc1cccc(F)c1)C(=O)N[C@@H](CCCCN)C(=O)N1CCC[C@H]1C(=O)N1CCC[C@H]1C(N)=O [Peptide 34, Ac-(r) (h)KPP-NH2] (Ac-[Thz][Phe(3-F)]KPP-NH2) and its Oxygen consumption VO2 for mice fed a high-fat diet was 5.88

---

# tested.on: Cbl (RING) protein (Homo sapiens, UniProt P22681)
# Sequence (P22681 358-457): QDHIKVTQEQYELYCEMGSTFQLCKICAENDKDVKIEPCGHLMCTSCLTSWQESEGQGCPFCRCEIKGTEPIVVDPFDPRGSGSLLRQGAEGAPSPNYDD
Where a SMILES comes first, the peptide text is derived from it. [ ]: non-standard residue; d: D form. Pro(trans-4-F) = O=C(O)[C@@H]1C[C@@H](F)CN1; Phe(3-F) = N[C@@H](Cc1cccc(F)c1)C(=O)O; Thz = O=C(O)[C@@H]1CSCN1
measurement.type: pKi
Numbers only, as −log10 of the molar value.

List reported pKi for each of these compounds:
1. CC(=O)N[C@@H](CCCCN)C(=O)N1CSC[C@H]1C(=O)N[C@H](C(=O)N[C@H](C(=O)N[C@@H](CCCCN)C(N)=O)[C@@H](C)O)[C@@H](C)O [Peptide 54, Ac-K(r)TTK-NH2] (Ac-K[Thz]TTK-NH2)
2. CC(=O)N[C@@H](CCCCN)C(=O)N1C[C@H](F)C[C@H]1C(=O)N[C@@H](C)C(=O)N[C@@H](CC(C)C)C(=O)N[C@@H](CCCCN)C(N)=O [Peptide 60, Ac-K(t)ALK-NH2] (Ac-K[Pro(trans-4-F)]ALK-NH2)
3. CC(=O)N1CCC[C@H]1C(=O)N[C@@H](Cc1cccc(F)c1)C(=O)N[C@@H](CCCCN)C(=O)N1C[C@H](F)C[C@H]1C(=O)N1CCC[C@H]1C(N)=O [Peptide 29, Ac-P(h)K(t)P-NH2] (Ac-P[Phe(3-F)]K[Pro(trans-4-F)]P-NH2)

**A:**
3.70
3.64
4.61

---

So I've got a bunch of compounds here, and I need their pKi values.
# tested.on: Cbl (RING) protein (Homo sapiens, UniProt P22681)
# Sequence (P22681 358-457): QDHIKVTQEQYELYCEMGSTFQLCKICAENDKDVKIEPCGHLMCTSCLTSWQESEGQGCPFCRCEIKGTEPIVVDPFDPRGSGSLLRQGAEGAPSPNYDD
Where a SMILES comes first, the peptide text is derived from it. [ ]: non-standard residue; d: D form. Phe(4-N3) = [N-]=[N+]=Nc1ccc(C[C@H](N)C(=O)O)cc1; Phe(4-CF3) = N[C@@H](Cc1ccc(C(F)(F)F)cc1)C(=O)O; Pro(trans-4-F) = O=C(O)[C@@H]1C[C@@H](F)CN1; Phe(4-NH2) = Nc1ccc(C[C@H](N)C(=O)O)cc1; Phe(3-F) = N[C@@H](Cc1cccc(F)c1)C(=O)O; Phe(4-Me) = Cc1ccc(C[C@H](N)C(=O)O)cc1; Phe(2-F) = N[C@@H](Cc1ccccc1F)C(=O)O; Pip = O=C(O)[C@@H]1CCCCN1; Thz = O=C(O)[C@@H]1CSCN1
Give bare numbers, as −log10 of the molar value.

Solved cases (5 shown):
# compound, pKi
measured = [
    ("CC(=O)N[C@@H](CCCCN)C(=O)N1C[C@H](F)C[C@H]1C(=O)N[C@@H](C)C(=O)N[C@H](C(=O)N[C@@H](CCCCN)C(N)=O)C(C)C [Peptide 58, Ac-K(t)AVK-NH2] (Ac-K[Pro(trans-4-F)]AVK-NH2)", 3.90),
    ("CC(=O)N[C@@H](CCCCN)C(=O)N1C[C@H](F)C[C@H]1C(=O)N[C@@H](C)C(=O)N[C@H](C(=O)N[C@@H](CCCCN)C(N)=O)[C@@H](C)O [Peptide 51, Ac-K(t)ATK-NH2] (Ac-K[Pro(trans-4-F)]ATK-NH2)", 5.42),
    ("CC(=O)N1CCC[C@H]1C(=O)N[C@@H](Cc1cccc(F)c1)C(=O)N[C@@H](CCCCN)C(=O)N1CCC[C@H]1C(=O)N1CCCC[C@H]1C(N)=O [Peptide 21, Ac-P(h)KP(s)-NH2] (Ac-P[Phe(3-F)]KP[Pip]-NH2)", 4.04),
    ("CC(=O)N1CCC[C@H]1C(=O)N[C@@H](Cc1ccccc1F)C(=O)N[C@@H](CCCCN)C(=O)N1CCC[C@H]1C(=O)N1CCC[C@H]1C(N)=O [Peptide 9, Ac-P(g)KPP-NH2] (Ac-P[Phe(2-F)]KPP-NH2)", 5.46),
    ("CC(=O)N1CCC[C@H]1C(=O)N[C@@H](Cc1ccc(N=[N+]=[N-])cc1)C(=O)N[C@@H](CCCCN)C(=O)N1CCC[C@H]1C(=O)N1CCC[C@H]1C(N)=O [Peptide 15, Ac-P(m)KPP-NH2] (Ac-P[Phe(4-N3)]KPP-NH2)", 5.08),
]

List reported pKi for each of these compounds:
1. CC(=O)N1CCC[C@H]1C(=O)N[C@@H](Cc1cccc(F)c1)C(=O)N[C@@H](CCCCN)C(=O)N1CCC[C@H]1C(=O)N1CCC[C@@H]1C(N)=O [Peptide 17, Ac-P(h)KP(o)-NH2] (Ac-P[Phe(3-F)]KP[dP]-NH2)
2. CC(=O)N1CCC[C@H]1C(=O)N[C@@H](Cc1ccc(N)cc1)C(=O)N[C@@H](CCCCN)C(=O)N1CCC[C@H]1C(=O)N1CCC[C@H]1C(N)=O [Peptide 12, Ac-P(j)KPP-NH2] (Ac-P[Phe(4-NH2)]KPP-NH2)
3. CC(=O)N1CCCC[C@H]1C(=O)N[C@@H](Cc1cccc(F)c1)C(=O)N[C@@H](CCCCN)C(=O)N1CCC[C@H]1C(=O)N1CCC[C@H]1C(N)=O [Peptide 35, Ac-(s) (h)KPP-NH2] (Ac-[Pip][Phe(3-F)]KPP-NH2)
4. CC(=O)N1CCC[C@H]1C(=O)N[C@@H](Cc1ccc(C(F)(F)F)cc1)C(=O)N[C@@H](CCCCN)C(=O)N1CCC[C@H]1C(=O)N1CCC[C@H]1C(N)=O [Peptide 14, Ac-P(l)KPP-NH2] (Ac-P[Phe(4-CF3)]KPP-NH2)
5. CC(=O)CN(CCCC[C@H](NC(C)=O)C(=O)N1CCC[C@H]1C(=O)N[C@@H](C)C(=O)N[C@H](C(=O)N[C@@H](CCCCN(O)C(C)=O)C(N)=O)[C@@H](C)O)C(C)=O [Peptide 45, Ac-(w)PAT(v)-NH2]
6. CC(=O)N[C@@H](CCCCN)C(=O)N1CSC[C@H]1C(=O)N[C@@H](C)C(=O)N[C@H](C(=O)N[C@@H](CCCCN)C(N)=O)[C@@H](C)O [Peptide 49, Ac-K(r)ATK-NH2] (Ac-K[Thz]ATK-NH2)
7. CC(=O)N1CCC[C@H]1C(=O)N[C@@H](Cc1ccc(C)cc1)C(=O)N[C@@H](CCCCN)C(=O)N1CCC[C@H]1C(=O)N1CCC[C@H]1C(N)=O [Peptide 8, Ac-P(f)KPP-NH2] (Ac-P[Phe(4-Me)]KPP-NH2)
8. CC[C@H](C)[C@H](NC(=O)[C@H](C)NC(=O)[C@@H]1C[C@@H](F)CN1C(=O)[C@H](CCCCN)NC(C)=O)C(=O)N[C@@H](CCCCN)C(N)=O [Peptide 59, Ac-K(t)AIK-NH2] (Ac-K[Pro(trans-4-F)]AIK-NH2)

**A:**
4.90
5.35
3.91
4.60
3.71
5.54
5.27
3.84

pKi in this record for CC(=O)N1CCC[C@H]1C(=O)N[C@H](Cc1ccccc1)C(=O)N[C@@H](CCCCN)C(=O)N1CCC[C@H]1C(=O)N1CCC[C@H]1C(N)=O [Peptide 16, Ac-P(n)KPP-NH2] (Ac-P[dF]KPP-NH2) : 4.81
